Please provide measured Kd for the entries that follow.
Target: DCAF1 WD40 domain (residues 1077-1390) (Homo sapiens, UniProt Q9Y4B6)
Construct: DCAF1 WD40 domain (residues 1077-1390)
Sequence (Q9Y4B6 1077-1390): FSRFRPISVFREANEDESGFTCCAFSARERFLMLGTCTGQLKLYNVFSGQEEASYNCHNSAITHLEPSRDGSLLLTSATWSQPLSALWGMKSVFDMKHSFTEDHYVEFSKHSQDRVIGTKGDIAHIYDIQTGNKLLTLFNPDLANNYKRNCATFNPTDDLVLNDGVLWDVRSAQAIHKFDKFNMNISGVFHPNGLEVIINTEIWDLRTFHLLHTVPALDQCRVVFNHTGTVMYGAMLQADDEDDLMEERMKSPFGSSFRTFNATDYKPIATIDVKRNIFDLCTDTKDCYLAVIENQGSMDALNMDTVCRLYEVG
Procedure Details: DCAF1 binding assay by SPR (Biacore 8K+), DCAF1-3 KD
Experimental Parameters: 25 °C, read-out: DCAF1-3 SPR (KD)

Notebook: `CO[C@@H]1C[C@@H](Nc2cc(N3CCOCC3)ccn2)CN(c2cccc(F)c2)C1` , Kd read as > 200 µM

So, `COCCc1[nH]nc(C(=O)N[C@@H](CC(N)=O)c2cccc(Cl)c2)c1-c1ccccc1F` ? Its Kd was > 200 µM

Briefly, Kd measured for `CCCCCCC[C@H]1CCCN(c2ccnc(N3CC[C@H]4[C@@H]3CCCN4c3cccc(F)c3)c2)C1` : 10 to 100 µM

Please fill in: Kd reported for `OCCC[C@H]1C[C@@H]2[C@@H](CCCN2c2cccc(F)c2)N1c1cc(N2CCCCC2)ccn1` = 10 to 100 µM

###

So I've got a bunch of molecules here, and I need their pKd values.
Target: DCAF1 WD40 domain (residues 1077-1390) (Homo sapiens, UniProt Q9Y4B6)
Construct: DCAF1 WD40 domain (residues 1077-1390)
Procedure Details: DCAF1 binding assay by SPR (Biacore 8K+), DCAF1-3 KD
Experimental Parameters: 25 °C, read-out: DCAF1-3 SPR (KD)
pKd: −log10 of the molar value.

Item c1cc2ccc(N3CCC[C@@H](Nc4nccc(N5CCOCC5)n4)C3)cc2cn1 [I-57] ; assay system DCAF1 WD40 domain (residues 1077-1390) (Homo sapiens, UniProt Q9Y4B6); pKd reported as 4.00 to 5.00

Measured on DCAF1 WD40 domain (residues 1077-1390) (Homo sapiens, UniProt Q9Y4B6), Cc1c(F)ccc(F)c1-c1[nH]ncc1C(=O)N[C@@H](c1cccc(Cl)c1)[C@H]1CCCS1(=O)=O [I-1000] has a documented pKd of > 5.00

Test item Cc1c(F)ccc(F)c1-c1c(C(=O)N[C@@H](CC(N)=O)c2cccc(Cl)c2)cn(C)c1C(=O)c1ccc(OCCOCCOCCOCCOCCOCCOCCN)cc1 [I-1015] ; DCAF1 WD40 domain (residues 1077-1390) (Homo sapiens, UniProt Q9Y4B6); reported pKd was > 5.00

Record CS(=O)(=O)N(c1cc(N2CCOCC2)ccn1)[C@@H]1CCCN(c2cccc(F)c2)C1 [I-304] has DCAF1 WD40 domain (residues 1077-1390) (Homo sapiens, UniProt Q9Y4B6) pKd equal to < 3.70

Kindly note: DCAF1 WD40 domain (residues 1077-1390) (Homo sapiens, UniProt Q9Y4B6), Fc1cccc(N2CCC[C@@H](Nc3cc(C4=CCOCC4)[nH]n3)C2)c1 [I-609] , pKd value reported: < 3.70

Fill in: DCAF1 WD40 domain (residues 1077-1390) (Homo sapiens, UniProt Q9Y4B6) pKd for COc1ccccc1N1CCC[C@@H](Nc2cc(N3CCOCC3)ncn2)C1 [I-15] = < 3.70

Hey, DCAF1 WD40 domain (residues 1077-1390) (Homo sapiens, UniProt Q9Y4B6) data for Fc1cccc(N2CCC[C@@H](N(c3cccnc3)c3cc(N4CCOCC4)ccn3)C2)c1 [I-306] : pKd came out at < 3.70

Considering Cc1sc2c(c1C)C(c1ccc(Cl)cc1)=N[C@@H](CC(=O)NCCOCCOCCOCCOCCOCCCc1ccc(C(=O)c3[nH]cc(C(=O)N[C@@H](CC(N)=O)c4cccc(Cl)c4)c3-c3c(F)ccc(F)c3C)cc1)c1nnc(C)n1-2 [I-907] , its pKd with DCAF1 WD40 domain (residues 1077-1390) (Homo sapiens, UniProt Q9Y4B6) was recorded as > 5.00

Readout pKd for C=CC(=O)N1CCC[C@H](c2n[nH]cc2C(=O)N[C@@H](CC(N)=O)c2cccc(Cl)c2)C1 [I-483] , test system DCAF1 WD40 domain (residues 1077-1390) (Homo sapiens, UniProt Q9Y4B6), was < 3.70

Per the reported DCAF1 WD40 domain (residues 1077-1390) (Homo sapiens, UniProt Q9Y4B6) data, C=CC(=O)NC1CCN(c2ccnc(N[C@@H]3CCCN(c4cccc(F)c4)C3)c2)CC1 [I-519] has pKd of 4.00 to 5.00

Here Cc1cccc(F)c1-c1c(C(=O)N[C@@H](CC(N)=O)c2cccc(Cl)c2)c[nH]c1C(=O)C1CCCCC1 [I-606] was tested on DCAF1 WD40 domain (residues 1077-1390) (Homo sapiens, UniProt Q9Y4B6), and its pKd came to > 5.00
